Attribution: patent US9868692B2

- measurement.notes: Residual lipid level in liver of rats (UPLC-MS quantification)
- Type: in vivo
- condition.label: liver, 0.2 mg/kg; rat, intravenous, 0.2 mpk, 0.5 h
quantity: concentration at 0.5 h (ng/g)
# value in ng/g; strip the unit string

Consider the molecule "CCCCCCCCCOC(=O)CCCCCCCN(CCO)CCCCCCCC(=O)OC(CCCCCCCC)CCCCCCCC" and give its measured concentration at 0.5 h. 6020

---

- measurement.notes: Residual lipid level in spleen of rats (UPLC-MS quantification)
- Assay type: in vivo
- condition.label: rat, iv, 0.2 mg/kg, 0.2 mpk, 0.25 h
quantity: concentration at 0.25 h (ng/g)
# value in ng/g; strip the unit string

> print(dat)
                                   compound  value.measured
1  CCCCCCCCCCCOC(=O)CCCCCN(CCO)CCCCCCCC(=O)OC(CCCCCCCC)CCCCCCCC            4040

Consider the compound CCCCCC=CCC=CCCCCCCCCC(CCCCCCCCC=CCC=CCCCCC)OC(=O)CCCN(C)C (centres unmarked) [MC3, reference compound] and give its measured concentration at 0.25 h. 4100

---

Property: EE (%); scope: individual compounds
- measurement.notes: Encapsulation efficiency of RNA, QUANT-IT RIBOGREEN RNA assay
- Format: physicochemical
- condition.label: Table 1A formulations
# value in %; strip the unit string

Example results:
> print(dat)
                                   compound  value.measured
1  CCCCCCCCC(CC)OC(=O)CCCN(CCO)CCCCCCCC(=O)OC(CCCCCCCC)CCCCCCCC (stereo not shown)            97.3
2  CCCCCCCCCOC(=O)CCCCCCCN(CCCCCCCC(=O)OC(CCCCCCCC)CCCCCCCC)CCCNC(=S)NC              99
3  CCCCCCCCCOC(=O)CCCCCCCN(CCCCCCCC(=O)OC(CCCCCCCC)CCCCCCCC)CCCNC(=O)N(C)C            97.4
4      CCCCCCCCCCCCN(CCO)CCCCCCCCCCCC(=O)OC            85.7
5  CCCCCCCCCOC(=O)CCCCCCCN(CCCCCCCC(=O)OC(CCCCCCCC)CCCCCCCC)CCCNc1c(N(C)C)c(=O)c1=O           99.04

Consider the compound "CCCCCCCCCOC(=O)CCCCCCCN(CCCCCCCC(=O)OC(CCCCCCCC)CCCCCCCC)CCCN1C(=O)CNC1=O" and give its measured EE (%). 98.52

One more compound: "CCCCCCCCCOC(=O)CCCCCCCN(CCCCCCCC(=O)OC(CCCCCCCC)CCCCCCCC)CCCNC(=S)N(C)C" 98.2

---

- measurement.notes: Residual lipid level in liver of rats (UPLC-MS quantification)
- Type: in vivo
- condition.label: liver, 0.2 mg/kg; rat, intravenous, 0.2 mpk, 0.25 h
quantity: concentration at 0.25 h (ng/g)
# value in ng/g; strip the unit string

Consider the compound "CCCCCCCCCOC(=O)CCCCCCCN(CCO)CCCCCCCC(=O)OC(CCCCCCCC)CCCCCCCC" and give its measured concentration at 0.25 h. 5370

---

- measurement.notes: Residual lipid level in liver of rats (UPLC-MS quantification)
- Format: in vivo
- condition.label: liver, 0.2 mg/kg; rat, intravenous, 0.2 mpk, 2 h
quantity: concentration at 2 h
Quote the value and follow it with the unit of measurement.

Consider the molecule CCCCCCCCCOC(=O)CCCCCCCN(CCO)CCCCCCCC(=O)OC(CCCCCCCC)CCCCCCCC [Compound 18] and give its measured concentration at 2 h. 2040 ng/g

---

- measurement.notes: Residual lipid level in liver of rats (UPLC-MS quantification)
- Type: in vivo
- condition.label: rat, liver, iv, 2 mg/kg, intravenous, 2 mpk, 48 hours, read-out: Liver level
quantity: concentration at 48 h (ng/g)
# value in ng/g; strip the unit string

Example results:
> print(dat)
                                   molecule  value.measured
1  CCCCCCCCC(C)OC(=O)CCCCCCCN(CCO)CCCCCCCC(=O)OC(CCCCCCCC)CCCCCCCC (stereo not shown)           34500
2  CCCCCCCCC(CCC)OC(=O)CCCCCCCN(CCO)CCCCCCCC(=O)OC(CCCCCCCC)CCCCCCCC (stereo not shown)           79200
3  CCCCCC=CCC=CCCCCCCCCC(CCCCCCCCC=CCC=CCCCCC)OC(=O)CCCN(C)C (stereo not shown) [MC3, reference compound]          141000

Now examine the next entry.
Consider the molecule CCCCCCCCC(CC)OC(=O)CCCCCCCN(CCO)CCCCCCCC(=O)OC(CCCCCCCC)CCCCCCCC (stereo not shown) and give its measured concentration at 48 h. 61400

---

- measurement.notes: Residual lipid level in spleen of rats (UPLC-MS quantification)
- Assay type: in vivo
- condition.label: rat, intravenous, 0.2 mg/kg, 0.2 mpk, 48 h, average of 3 rats, read-out: Spleen level
Property: log10 concentration at 48 h; scope: individual compounds
Base-10 log of concentration at 48 h, unit ng/g.

Example results:
> print(dat)
                                   compound                     quantity  value.measured
1  CCCCCCCCC(CCCCCCCC)OC(=O)CCCCCCCN(CCO)CCCC(=O)OCCCCCC  log10 concentration at 48 h            3.07
2  CCCCCC=CCC=CCCCCCCCCC(CCCCCCCCC=CCC=CCCCCC)OC(=O)CCCN(C)C (centres unmarked) [MC3, reference compound]  log10 concentration at 48 h            3.97
3  CCCCCCCCCOC(=O)CCCCCCCN(CCO)CCCCCCCC(=O)OC(CCCCC)CCCCCCCC (centres unmarked)  log10 concentration at 48 h            2.06

Consider the compound CCCCCCCCC(CCCCCCCC)OC(=O)CCCCCCCN(CCO)CCCCCCCC(=O)OCC1CC1CCCCCC (centres unmarked) and give its measured log10 concentration at 48 h. 2.43

One more compound: "CCCCCCCCC(CCCCCCCC)OC(=O)CCCCCCCN(CCO)CCCC(=O)OCCCCCCC" 3.80

---

Property: PDI; scope: individual compounds
- measurement.notes: Particle size, polydispersity index (and zeta potential) of nanoparticle compositions, Zetasizer Nano ZS
- Format: physicochemical
- condition.label: Table 1A formulations
Field format: numeric only.

> print(dat)
                                   compound  value.measured
1  CCCCCCCCCOC(=O)CCCCCCCN(CCCCCCCC(=O)OC(CCCCCCCC)CCCCCCCC)CCCNC(=O)N(C)C            0.13
2  CCCCCCCCCOC(=O)CCCCCCCN(CCCCCCCC(=O)OC(CCCCCCCC)CCCCCCCC)CCCNC(=S)N(C)C            0.14
3  CCCCCCCCCOC(=O)CCCCCCCN(CCCCCCCC(=O)OC(CCCCCCCC)CCCCCCCC)CCCN/C(=N/C#N)N(C)C             0.1
4  CCCCCCCCCOC(=O)CCCCCCCN(CCCCCCCC(=O)OC(CCCCCCCC)CCCCCCCC)CCCNC(=S)NC            0.15
5  CCCCCCCCC(CC)OC(=O)CCCN(CCO)CCCCCCCC(=O)OC(CCCCCCCC)CCCCCCCC (stereo not drawn)            0.11

Consider the compound "CCCCCCCCCOC(=O)CCCCCCCN(CCCCCCCC(=O)OC(CCCCCCCC)CCCCCCCC)CCCN1C(=O)CNC1=O" and give its measured PDI. 0.12

One more compound: CCCCCCCCC(CC)OC(=O)CCCCCCCN(CCO)CCCCCCCC(=O)OC(CCCCCCCC)CCCCCCCC (stereo not drawn) 0.110

One more compound: CCCCCCCCCOC(=O)CCCCCCCN(CCCCCCCC(=O)OC(CCCCCCCC)CCCCCCCC)C(C)CO (stereo not drawn) 0.096

One more compound: CCCCCCCCC(CCCCCCCC)OC(=O)CCCCCCCN(CCO)CCCC(=O)OC(CCCCC)CCCCCCCC (stereo not drawn) 0.11

One more compound: "CCCCCCCCCOC(=O)CCCCCCCN(CCO)CCCCCCCC(=O)OC(CCCCCCCC)CCCCCCCC" 0.042

One more compound: "CCCCCCCCCOC(=O)CCCCCCCN(CCCCCCCC(=O)OC(CCCCCCCC)CCCCCCCC)CCCNC(=O)NC" 0.12

One more compound: "CCCCCCCCCOC(=O)CCCCCCCN(CCCCCCCC(=O)OC(CCCCCCCC)CCCCCCCC)CCCN/C(=C/[N+](=O)[O-])NC" 0.12
